molecular target: human GLP1R (Homo sapiens); experiment: Luciferase reporter assay, HEK293/CRE-Luc/hGLP1R (Example 17); format: cell-based; set-up: engineered to express full-length human GLP1R, cynomolgus GLP1R; expressed in transfected cells; host or cells: HEK293/CRE-Luc; settings: HEK293/CRE-Luc/hGLP1R; relative to M2361 of the same experiment
Where a SMILES comes first, the peptide text is derived from it. [ ]: non-standard residue; d: D form. The star is where a group is joined. Bip(2'-Et,4'-O(CH2)4NH2) = CCc1cc(OCCCCN)ccc1-c1ccc(C[C@H](N)C(=O)O)cc1; Nva(5-(3,5-Me2Ph)) = Cc1cc(C)cc(CCC[C@H](N)C(=O)O)c1; Ala(1H-tetrazol-5-yl) = N[C@@H](Cc1nnn[nH]1)C(=O)O; αMePhe(2-F) = C[C@](N)(Cc1ccccc1F)C(=O)O; X2 = CC(C)(C(N)=O)C(=O)*; X4 = CC(C)(C(=O)O)C(=O)*; Aib = CC(C)(N)C(=O)O

compound	Relative Potency (% M2361 EC50) / %
CCc1cc(OCCCCNC(=O)[C@H](CO)NC(=O)CNC(=O)CNC(=O)CNC(=O)CNC(=O)CCC(=O)N2Cc3ccccc3C#Cc3ccccc32)ccc1-c1ccc(C[C@H](NC(=O)[C@H](CC(=O)O)NC(=O)[C@H](CO)NC(=O)[C@@H](NC(=O)[C@](C)(Cc2ccccc2F)NC(=O)[C@@H](NC(=O)CNC(=O)[C@H](Cc2nn[nH]n2)NC(=O)C(C)(C)C(=O)NCCc2cnc[nH]2)[C@@H](C)O)[C@@H](C)O)C(=O)N[C@@H](CCCc2cc(C)cc(C)c2)C(=O)Nc2ccccc2)cc1 [LP15, DIBAC- suc-G4S- P23]	7.5
CCc1cc(OCCCCN)ccc1-c1ccc(C[C@H](NC(=O)[C@H](CC(=O)O)NC(=O)[C@H](CO)NC(=O)[C@@H](NC(=O)[C@](C)(Cc2ccccc2F)NC(=O)[C@@H](NC(=O)CNC(=O)[C@H](Cc2nn[nH]n2)NC(=O)[C@@H](N)CO)[C@@H](C)O)[C@@H](C)O)C(=O)N[C@@H](CCCc2cc(C)cc(C)c2)C(N)=O)cc1 [P7] (H-S[Ala(1H-tetrazol-5-yl)]GT[αMePhe(2-F)]TSD[Bip(2'-Et,4'-O(CH2)4NH2)][Nva(5-(3,5-Me2Ph))]-NH2)	0.3
CCc1cc(OCCCCN)ccc1-c1ccc(C[C@H](NC(=O)[C@H](CC(=O)O)NC(=O)[C@H](CO)NC(=O)[C@@H](NC(=O)[C@](C)(Cc2ccccc2F)NC(=O)[C@@H](NC(=O)CNC(=O)[C@H](Cc2nn[nH]n2)NC(=O)C(C)(C)C(=O)O)[C@@H](C)O)[C@@H](C)O)C(=O)N[C@@H](CCCc2cc(C)cc(C)c2)C(N)=O)cc1 [P3] (X4-[Ala(1H-tetrazol-5-yl)]GT[αMePhe(2-F)]TSD[Bip(2'-Et,4'-O(CH2)4NH2)][Nva(5-(3,5-Me2Ph))]-NH2)	0.3
CCc1cc(OCCCCN)ccc1-c1ccc(C[C@H](NC(=O)[C@H](CC(=O)O)NC(=O)[C@H](CO)NC(=O)[C@@H](NC(=O)[C@](C)(Cc2ccccc2F)NC(=O)[C@@H](NC(=O)CNC(=O)[C@H](Cc2nn[nH]n2)NC(=O)C(C)(C)C(N)=O)[C@@H](C)O)[C@@H](C)O)C(=O)N[C@@H](CCCc2cc(C)cc(C)c2)C(N)=O)cc1 [P4] (X2-[Ala(1H-tetrazol-5-yl)]GT[αMePhe(2-F)]TSD[Bip(2'-Et,4'-O(CH2)4NH2)][Nva(5-(3,5-Me2Ph))]-NH2)	6.3
CCc1cc(OCCCCN)ccc1-c1ccc(C[C@H](NC(=O)[C@H](CC(=O)O)NC(=O)[C@H](CO)NC(=O)[C@@H](NC(=O)[C@](C)(Cc2ccccc2F)NC(=O)[C@@H](NC(=O)CNC(=O)[C@H](Cc2nn[nH]n2)NC(=O)C(C)(C)NC(=O)[C@@H](N)Cc2ccc(O)cc2)[C@@H](C)O)[C@@H](C)O)C(=O)N[C@@H](CCCc2cc(C)cc(C)c2)C(N)=O)cc1 [P19] (H-Y[Aib][Ala(1H-tetrazol-5-yl)]GT[αMePhe(2-F)]TSD[Bip(2'-Et,4'-O(CH2)4NH2)][Nva(5-(3,5-Me2Ph))]-NH2)	9.9

---

target: human GLP1R (Homo sapiens); test: Luciferase reporter assay, HEK293/CRE-Luc/hGLP1R (Example 17); type: cell-based; set-up: engineered to express full-length human GLP1R, cynomolgus GLP1R; expressed in transfected cells; host or cells: HEK293/CRE-Luc; conditions: HEK293/CRE-Luc/hGLP1R; payloads and linker-payloads; experiments A-E, M2361 repeated in each; read-out: EC50
Where a SMILES comes first, the peptide text is derived from it. [ ]: non-standard residue; d: D form. The star is where a group is joined. Bip(2'-Et,4'-O(CH2)4NH2) = CCc1cc(OCCCCN)ccc1-c1ccc(C[C@H](N)C(=O)O)cc1; Nva(5-(3,5-Me2Ph)) = Cc1cc(C)cc(CCC[C@H](N)C(=O)O)c1; Ala(1H-tetrazol-5-yl) = N[C@@H](Cc1nnn[nH]1)C(=O)O; αMePhe(2-F) = C[C@](N)(Cc1ccccc1F)C(=O)O; X2 = CC(C)(C(N)=O)C(=O)*

molecule	unit symbol	EC50
CCc1cc(OCCCCN)ccc1-c1ccc(C[C@H](NC(=O)[C@H](CC(=O)O)NC(=O)[C@H](CO)NC(=O)[C@@H](NC(=O)[C@](C)(Cc2ccccc2F)NC(=O)[C@@H](NC(=O)CNC(=O)[C@H](Cc2nn[nH]n2)NC(=O)C(C)(C)C(N)=O)[C@@H](C)O)[C@@H](C)O)C(=O)N[C@@H](CCCc2cc(C)cc(C)c2)C(N)=O)cc1 [P4] (X2-[Ala(1H-tetrazol-5-yl)]GT[αMePhe(2-F)]TSD[Bip(2'-Et,4'-O(CH2)4NH2)][Nva(5-(3,5-Me2Ph))]-NH2)	nM	0.0837

---

biological target: human GLP1R (Homo sapiens); test: Luciferase reporter assay, HEK293/CRE-Luc/hGLP1R cells (Example 11); assay type: cell-based; design: engineered to express full-length human GLP1R, cynomolgus GLP1R; expressed in transfected cells; host or cells: HEK293/CRE-Luc; conditions: Table 11; Experiment A
Where a SMILES comes first, the peptide text is derived from it. [ ]: non-standard residue; d: D form. The star is where a group is joined. Bip(2'-Et,4'-O(CH2)4NH2) = CCc1cc(OCCCCN)ccc1-c1ccc(C[C@H](N)C(=O)O)cc1; Nva(5-(3,5-Me2Ph)) = Cc1cc(C)cc(CCC[C@H](N)C(=O)O)c1; Ala(1H-tetrazol-5-yl) = N[C@@H](Cc1nnn[nH]1)C(=O)O; αMePhe(2-F) = C[C@](N)(Cc1ccccc1F)C(=O)O; X3 = CC(C)(C(=O)*)c1ccn[nH]1
attribute measured: HEK293/CRE-LUC/hGLP1R S/N

compound	result
CCc1cc(OCCCCN)ccc1-c1ccc(C[C@H](NC(=O)[C@H](CC(=O)O)NC(=O)[C@H](CO)NC(=O)[C@@H](NC(=O)[C@](C)(Cc2ccccc2F)NC(=O)[C@@H](NC(=O)CNC(=O)[C@H](Cc2nn[nH]n2)NC(=O)C(C)(C)c2ccn[nH]2)[C@@H](C)O)[C@@H](C)O)C(=O)N[C@@H](CCCc2cc(C)cc(C)c2)C(N)=O)cc1 [P6] (X3-[Ala(1H-tetrazol-5-yl)]GT[αMePhe(2-F)]TSD[Bip(2'-Et,4'-O(CH2)4NH2)][Nva(5-(3,5-Me2Ph))]-NH2)	60.7

---

experiment: Liver microsome stability; assay type: in vitro ADME, human; settings: human, microsomes; Table 7; read-out: CLint(mic)

smiles	unit symbol	microsomal CLint
C[C@]12CC[C@H]3[C@@H](CCC4=CC(=O)CC[C@@]43C)[C@@H]1CC[C@@H]2O	µL/min/mg	85.7

---

target: human GLP1R (Homo sapiens, UniProt P43220); assay: Luciferase reporter assay, HEK293/CRE-Luc/hGLP1R cells (Example 11); format: cell-based; design: engineered to express full-length human GLP1R, cynomolgus GLP1R; expressed in transfected cells; host or cells: HEK293/CRE-Luc; conditions: Table 11; Experiment A
Sequence (P43220 24-463): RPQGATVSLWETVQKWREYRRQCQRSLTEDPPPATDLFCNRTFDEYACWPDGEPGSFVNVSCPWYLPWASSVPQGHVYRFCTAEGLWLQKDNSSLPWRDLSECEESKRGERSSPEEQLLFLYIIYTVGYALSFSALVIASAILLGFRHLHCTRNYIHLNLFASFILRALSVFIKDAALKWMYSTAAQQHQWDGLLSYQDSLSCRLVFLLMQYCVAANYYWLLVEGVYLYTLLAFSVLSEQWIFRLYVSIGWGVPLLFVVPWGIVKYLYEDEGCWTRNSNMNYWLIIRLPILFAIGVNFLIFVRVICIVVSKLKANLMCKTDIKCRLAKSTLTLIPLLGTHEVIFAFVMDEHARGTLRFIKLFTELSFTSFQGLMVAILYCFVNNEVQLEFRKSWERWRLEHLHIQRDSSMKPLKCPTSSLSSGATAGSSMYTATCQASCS
Where a SMILES comes first, the peptide text is derived from it. [ ]: non-standard residue; d: D form. The star is where a group is joined. Bip(2'-Et,4'-O(CH2)4NH2) = CCc1cc(OCCCCN)ccc1-c1ccc(C[C@H](N)C(=O)O)cc1; Nva(5-(3,5-Me2Ph)) = Cc1cc(C)cc(CCC[C@H](N)C(=O)O)c1; Ala(1H-tetrazol-5-yl) = N[C@@H](Cc1nnn[nH]1)C(=O)O; αMePhe(2-F) = C[C@](N)(Cc1ccccc1F)C(=O)O; Desaminohistidyl = O=C(CCc1c[nH]cn1)*

compound	HEK293/CRE-LUC/hGLP1R S/N
CCc1cc(OCCCCN)ccc1-c1ccc(C[C@H](NC(=O)[C@H](CC(=O)O)NC(=O)[C@H](CO)NC(=O)[C@@H](NC(=O)[C@](C)(Cc2ccccc2F)NC(=O)[C@@H](NC(=O)CNC(=O)[C@H](Cc2nn[nH]n2)NC(=O)CNC(=O)CCc2cnc[nH]2)[C@@H](C)O)[C@@H](C)O)C(=O)N[C@@H](CCCc2cc(C)cc(C)c2)C(N)=O)cc1 [P12] (Desaminohistidyl-G[Ala(1H-tetrazol-5-yl)]GT[αMePhe(2-F)]TSD[Bip(2'-Et,4'-O(CH2)4NH2)][Nva(5-(3,5-Me2Ph))]-NH2)	76.4
